The next entries give measured IC50 for UniProt:O14649.

{"Sample smiles": "O=C(Nc1cccc(NC(=O)c2ccc(F)cc2)c1)c1ccccc1", "Value reported": "306 nM"}
{"Sample smiles": "O=C(Nc1cccc(NC(=O)c2ccncc2)c1)c1ccccc1", "Value reported": "249 nM"}
{"Sample smiles": "COc1ccccc1C(=O)Nc1cccc(NC(=O)c2cccc(C)c2)c1", "Value reported": "4 nM"}

// query Notebook: pull reported IC50 for UniProt:O14649, entry `Cc1cccc(C(=O)Nc2cccc(NC(=O)c3ccc(Cl)cc3)c2)c1`
// result 149 nM

// query # repeat for `O=C(Nc1cccc(NC(=O)c2cccc(Cl)c2)c1)c1ccccc1`
// result 52 nM

// query # repeat for `Cc1cccc(C(=O)Nc2cccc(NC(=O)c3ccc(N(C)C)cc3)c2)c1`
// result 145 nM

// query # repeat for `Cc1cccc(C(=O)Nc2cccc(NC(=O)c3ccco3)c2)c1`
// result 143 nM

---

Target of assay: Potassium channel subfamily K member 3 (Homo sapiens) (UniProt O14649)
Sequence (O14649 whole entry, looked up): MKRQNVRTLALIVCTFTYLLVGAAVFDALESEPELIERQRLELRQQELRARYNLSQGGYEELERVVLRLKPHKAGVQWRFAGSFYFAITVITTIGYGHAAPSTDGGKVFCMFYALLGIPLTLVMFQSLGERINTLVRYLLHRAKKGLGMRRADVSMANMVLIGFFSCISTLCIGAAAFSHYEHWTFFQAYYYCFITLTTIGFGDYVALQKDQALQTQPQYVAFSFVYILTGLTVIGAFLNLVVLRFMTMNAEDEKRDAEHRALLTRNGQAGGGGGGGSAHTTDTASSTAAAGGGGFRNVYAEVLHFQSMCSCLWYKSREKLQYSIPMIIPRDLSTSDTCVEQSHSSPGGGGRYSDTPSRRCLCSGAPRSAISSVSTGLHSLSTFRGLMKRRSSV
Endpoint name: IC50

// worked examples, IC50 included
{"Sample smiles": "O=C(Nc1cccc(NC(=O)c2ccccc2C(F)(F)F)c1)c1ccccc1", "Endpoint name": "IC50", "Value reported": "130 nM"}
{"Sample smiles": "O=C(Nc1cccc(NC(=O)C2CCCCC2)c1)c1ccccc1", "Endpoint name": "IC50", "Value reported": "79 nM"}
{"Sample smiles": "Cc1ccccc1C(=O)Nc1cccc(NC(=O)c2ccccc2)c1", "Endpoint name": "IC50", "Value reported": "104 nM"}
{"Sample smiles": "Cc1cccc(C(=O)Nc2cccc(NC(=O)c3cccc(C)c3)c2)c1", "Endpoint name": "IC50", "Value reported": "30 nM"}
{"Sample smiles": "Cc1cccc(C(=O)Nc2cccc(NC(=O)c3cccc(F)c3)c2)c1", "Endpoint name": "IC50", "Value reported": "25 nM"}
{"Sample smiles": "CC(C)c1ccccc1C(=O)Nc1cccc(NC(=O)c2ccccc2OC(F)(F)F)c1", "Endpoint name": "IC50", "Value reported": "11 nM"}
{"Sample smiles": "CCOc1ccccc1C(=O)Nc1cccc(NC(=O)c2ccccc2C(F)(F)F)c1", "Endpoint name": "IC50", "Value reported": "2 nM"}
{"Sample smiles": "COc1ccccc1C(=O)Nc1cccc(NC(=O)c2ccccc2)c1", "Endpoint name": "IC50", "Value reported": "222 nM"}
{"Sample smiles": "CCOc1ccccc1C(=O)Nc1cccc(NC(=O)c2ccccc2OC)c1", "Endpoint name": "IC50", "Value reported": "2 nM"}
{"Sample smiles": "Cc1cccc(C(=O)Nc2cccc(NC(=O)c3ccccc3Cl)c2)c1", "Endpoint name": "IC50", "Value reported": "23 nM"}

// query Which IC50 value belongs to `COc1ccc(C(=O)Nc2cccc(NC(=O)c3cccc(C)c3)c2)cc1` ?
// result 1330 nM

---

Target of assay: Potassium channel subfamily K member 3 (Homo sapiens) (UniProt O14649)
Endpoint name: IC50

// worked examples, IC50 included
{"Sample smiles": "Cc1cccc(C(=O)Nc2cccc(NC(=O)c3cccc(Cl)c3)c2)c1", "Target of assay": "Potassium channel subfamily K member 3 (Homo sapiens) (UniProt O14649)", "IC50": "3 nM"}
{"Sample smiles": "CC(C)Oc1ccccc1C(=O)Nc1cccc(NC(=O)c2ccccc2OC(F)(F)F)c1", "Target of assay": "Potassium channel subfamily K member 3 (Homo sapiens) (UniProt O14649)", "IC50": "1 nM"}
{"Sample smiles": "O=C(Nc1cccc(NC(=O)c2ccsc2)c1)c1ccccc1", "Target of assay": "Potassium channel subfamily K member 3 (Homo sapiens) (UniProt O14649)", "IC50": "162 nM"}
{"Sample smiles": "COc1cccc(C(=O)Nc2cccc(NC(=O)c3cccc(C)c3)c2)c1", "Target of assay": "Potassium channel subfamily K member 3 (Homo sapiens) (UniProt O14649)", "IC50": "31 nM"}
{"Sample smiles": "O=C(Nc1cccc(NC(=O)c2cccs2)c1)c1ccccc1", "Target of assay": "Potassium channel subfamily K member 3 (Homo sapiens) (UniProt O14649)", "IC50": "29 nM"}

// query Which IC50 value belongs to `O=C(Nc1cccc(NC(=O)c2cccc(C(F)(F)F)c2)c1)c1ccccc1` ?
// result 157 nM

// query # repeat for `COc1ccccc1C(=O)Nc1cccc(NC(=O)c2ccccc2C)c1`
// result 73 nM

// query # repeat for `COc1cccc(C(=O)Nc2cccc(NC(=O)c3ccccc3)c2)c1`
// result 327 nM

// query # repeat for `COc1ccccc1C(=O)Nc1cccc(NC(=O)c2ccccc2C(C)C)c1`
// result 7 nM

// query # repeat for `O=C(Nc1cccc(NC(=O)c2ccoc2)c1)c1ccccc1`
// result 799 nM

// query # repeat for `COc1ccccc1C(=O)Nc1cccc(NC(=O)c2ccccc2OC)c1`
// result 10 nM
